- experiment_description: Metabolic stability assay, human hepatocyte incubations
- Type: in vitro ADME
- stated_conditions: compound 1 μM, human hepatocytes, 0-60 min at 37° C.; read-out: Human hepatocytes MetStab T½ min
- Method: Compound stock solutions of the invention were prepared in […]. Final concentration of DMSO was adjusted to 1% in all samples. The in vitro metabolic stability of the compounds of the invention was determined for exemplified compounds using human hepatocyte incubations; study compounds at concentration of 1 μM were incubated 0, 10, 20, 40 and 60 min at 37° C. Samples were collected at all time points and compounds were detected by LC-MS/MS analysis. […]
measured_metric: half-life at 1 μM (min)
Write it as a number; the unit min goes unstated.

Give its half-life at 1 μM value. Item: CC(C)c1ccc(NC(=O)CC[C@@H]2c3c[nH]nc3[C@@]3(C)CCC4c5cccc(F)c5CCC4C23)nc1 (stereo partly drawn) [Compound 36] 37

Another compound to look at: COc1ccnc(NC(=O)CC[C@@H]2c3c[nH]nc3[C@@]3(C)CCC4c5ccccc5CCC4C23)c1 (stereo partly drawn) [Compound 165] 44

Another compound to look at: COc1ccc(NC(=O)CC[C@@H]2c3c[nH]nc3[C@@]3(C)CCC4c5ccc(F)cc5CCC4C23)nc1 (stereo partly drawn) [Compound 84] 148

Another compound to look at: CC(C)c1ccc(NC(=O)CC[C@@H]2c3c[nH]nc3[C@@]3(C)CCC4c5ccc(F)cc5CCC4C23)nc1 (stereo partly drawn) [Compound 87] 127

Another compound to look at: C[C@]12CCC3c4cccc(F)c4CCC3C1[C@H](CCC(=O)N1CCOCC1)c1c[nH]nc12 (stereo partly drawn) [Compound 234] 26

Another compound to look at: C[C@]12CCC3c4cccc(F)c4CCC3C1[C@H](CCC(=O)N1CCC3(CCOCC3)C1)c1c[nH]nc12 (stereo partly drawn) [Compound 219] 7

Another compound to look at: C[C@]12CCC3c4cccc(F)c4CCC3C1[C@H](CCC(=O)NC1CCOCC1)c1c[nH]nc12 (stereo partly drawn) [Compound 45] 35

Another compound to look at: C[C@]12CCC3c4cccc(F)c4CCC3C1[C@H](CCC(=O)Nc1ccccn1)c1c[nH]nc12 (stereo partly drawn) [Compound 18] 41

Another compound to look at: CCN(CC)C(=O)CC[C@@H]1c2c[nH]nc2[C@@]2(C)CCC3c4cccc(F)c4CCC3C12 (stereo partly drawn) [Compound 216] 8

Another compound to look at: COc1ccc(NC(=O)CC[C@@H]2c3c[nH]nc3[C@@]3(C)CCC4c5cccc(F)c5CCC4C23)nc1 (stereo partly drawn) [Compound 21] 40

Another compound to look at: C[C@]12CCC3c4ccccc4CCC3C1[C@H](CCC(=O)Nc1ccccn1)c1c[nH]nc12 (stereo partly drawn) [Compound 171] 73

Another compound to look at: C[C@]12CCC3c4cccc(F)c4CCC3C1[C@H](CCC(=O)Nc1ccc(N3CCOCC3)cn1)c1c[nH]nc12 (stereo partly drawn) [Compound 39] 67

Another compound to look at: COc1ccc(NC(=O)CC[C@@H]2c3c[nH]nc3[C@@]3(C)CCC4c5ccccc5CCC4C23)nc1 (stereo partly drawn) [Compound 141] 45

Another compound to look at: C[C@]12CCC3c4cccc(F)c4CCC3C1[C@H](CCC(=O)Nc1cnccn1)c1c[nH]nc12 (stereo partly drawn) [Compound 51] 31

Another compound to look at: C[C@]12CCC3c4ccc(Cl)cc4CCC3C1[C@H](CCC(=O)Nc1cc3c([nH]c1=O)CCCC3)c1c[nH]nc12 (stereo partly drawn) [Compound 123] 155
